experimentalTarget: Protein cereblon/Bromodomain-containing protein 4 (Homo sapiens, UniProt O60885+Q96SW2)
Sequence (Q96SW2 whole entry, looked up, other chains not shown): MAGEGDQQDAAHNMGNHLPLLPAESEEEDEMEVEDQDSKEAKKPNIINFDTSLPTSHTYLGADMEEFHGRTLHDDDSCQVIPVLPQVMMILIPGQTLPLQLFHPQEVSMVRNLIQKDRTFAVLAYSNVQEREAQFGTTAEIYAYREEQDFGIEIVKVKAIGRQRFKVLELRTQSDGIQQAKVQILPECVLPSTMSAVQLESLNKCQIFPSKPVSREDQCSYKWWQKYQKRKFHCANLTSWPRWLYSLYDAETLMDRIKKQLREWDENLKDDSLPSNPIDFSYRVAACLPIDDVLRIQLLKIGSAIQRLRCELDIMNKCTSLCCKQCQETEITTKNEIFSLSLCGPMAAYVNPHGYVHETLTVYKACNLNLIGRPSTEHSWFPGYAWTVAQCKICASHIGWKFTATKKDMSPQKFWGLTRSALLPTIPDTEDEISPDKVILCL
assay: Photocaged-PROTAC activity at CRBN/BRD4 in human Ramos cells assessed as […] Brd4 protein degradation under dark condition pre-incubated for 12 hrs by Western blot analysis
Type: cell-based
measuredParameter: DC50

molecule=COc1cc(CN(C(=O)COCCOCCOCCOC(=O)C[C@@H]2N=C(c3ccc(Cl)cc3)c3c(sc(C)c3C)-n3c(C)nnc32)[C@H](C(=O)N2C[C@H](O)C[C@H]2C(=O)NCc2ccc(-c3scnc3C)cc2)C(C)(C)C)c([N+](=O)[O-])cc1OC measuredparameter=DC50 observedmeasurement="> 10 µM"
molecule="CCN(Cc1cc(OC)c(OC)cc1[N+](=O)[O-])C(=O)c1sc2c(c1C)C(c1ccc(Cl)cc1)=N[C@@H](CC(=O)NCCCCNC(=O)COc1cccc3c1C(=O)N(C1CCC(=O)NC1=O)C3=O)c1nnc(C)n1-2 (some centres not stated)" measuredparameter=DC50 observedmeasurement="> 10 µM"
molecule="COc1cc(CN2C(=O)CCC(N3C(=O)c4cccc(OCC(=O)NCCCCNC(=O)C[C@@H]5N=C(c6ccc(Cl)cc6)c6c(sc(C)c6C)-n6c(C)nnc65)c4C3=O)C2=O)c([N+](=O)[O-])cc1OC (some centres not stated)" measuredparameter=DC50 observedmeasurement="> 10 µM"
molecule=COc1cc(COC(=O)O[C@@H]2C[C@@H](C(=O)NCc3ccc(-c4scnc4C)cc3)N(C(=O)[C@@H](NC(=O)COCCOCCOCCOC(=O)C[C@@H]3N=C(c4ccc(Cl)cc4)c4c(sc(C)c4C)-n4c(C)nnc43)C(C)(C)C)C2)c([N+](=O)[O-])cc1OC measuredparameter=DC50 observedmeasurement="< 0.03 µM"
molecule="COc1cc(CN(CCCCNC(=O)C[C@@H]2N=C(c3ccc(Cl)cc3)c3c(sc(C)c3C)-n3c(C)nnc32)C(=O)COc2cccc3c2C(=O)N(C2CCC(=O)NC2=O)C3=O)c([N+](=O)[O-])cc1OC (some centres not stated)" measuredparameter=DC50 observedmeasurement="0.059 µM"
molecule="COc1cc(CON2C(=O)CCC(N3C(=O)c4cccc(OCC(=O)NCCCCNC(=O)C[C@@H]5N=C(c6ccc(Cl)cc6)c6c(sc(C)c6C)-n6c(C)nnc65)c4C3=O)C2=O)c([N+](=O)[O-])cc1OC (some centres not stated)" measuredparameter=DC50 observedmeasurement="> 10 µM"
molecule=COc1cc(CN(Cc2ccc(-c3scnc3C)cc2)C(=O)[C@@H]2C[C@@H](O)CN2C(=O)[C@@H](NC(=O)COCCOCCOCCOC(=O)C[C@@H]2N=C(c3ccc(Cl)cc3)c3c(sc(C)c3C)-n3c(C)nnc32)C(C)(C)C)c([N+](=O)[O-])cc1OC measuredparameter=DC50 observedmeasurement="> 10 µM"

---

Below, each entry is listed with its recorded DC50.
experimentalTarget: Protein cereblon/Bromodomain-containing protein 4 (Homo sapiens, UniProt O60885+Q96SW2)
assay: Photocaged-PROTAC activity at CRBN/BRD4 in human Ramos cells assessed as […] Brd4 protein degradation pre-incubated for 2 hrs followed by UV light irradiation at 365 nM for 3 mins and measured after 12 hrs by Western blot analysis
Format: cell-based
measuredParameter: DC50 (nM)

compound="COc1cc(CN(CCCCNC(=O)C[C@@H]2N=C(c3ccc(Cl)cc3)c3c(sc(C)c3C)-n3c(C)nnc32)C(=O)COc2cccc3c2C(=O)N(C2CCC(=O)NC2=O)C3=O)c([N+](=O)[O-])cc1OC (some centres undefined)" measurementqualifier== observedmeasurement=55
compound=COc1cc(CN(Cc2ccc(-c3scnc3C)cc2)C(=O)[C@@H]2C[C@@H](O)CN2C(=O)[C@@H](NC(=O)COCCOCCOCCOC(=O)C[C@@H]2N=C(c3ccc(Cl)cc3)c3c(sc(C)c3C)-n3c(C)nnc32)C(C)(C)C)c([N+](=O)[O-])cc1OC measurementqualifier=< observedmeasurement=30
compound=COc1cc(CN(C(=O)COCCOCCOCCOC(=O)C[C@@H]2N=C(c3ccc(Cl)cc3)c3c(sc(C)c3C)-n3c(C)nnc32)[C@H](C(=O)N2C[C@H](O)C[C@H]2C(=O)NCc2ccc(-c3scnc3C)cc2)C(C)(C)C)c([N+](=O)[O-])cc1OC measurementqualifier=> observedmeasurement=10000
compound="COc1cc(CN2C(=O)CCC(N3C(=O)c4cccc(OCC(=O)NCCCCNC(=O)C[C@@H]5N=C(c6ccc(Cl)cc6)c6c(sc(C)c6C)-n6c(C)nnc65)c4C3=O)C2=O)c([N+](=O)[O-])cc1OC (some centres undefined)" measurementqualifier== observedmeasurement=2310
